Target: p53-MDM4 interaction (human MDM4 protein, amino acids 2-185) (Homo sapiens, UniProt O15151)
Construct: human MDM4 protein (amino acids 2-185)
Sequence (O15151 2-185): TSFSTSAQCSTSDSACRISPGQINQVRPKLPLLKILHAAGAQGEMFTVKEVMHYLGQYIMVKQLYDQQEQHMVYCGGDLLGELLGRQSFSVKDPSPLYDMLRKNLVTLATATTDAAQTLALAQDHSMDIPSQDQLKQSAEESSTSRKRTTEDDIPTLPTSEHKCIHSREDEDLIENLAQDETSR
Assay: p53-MDM4 Assay 1: TR-FRET inhibition of p53-MDM4 interaction
Details: 2.5 nM MDM4-biotinylated, 10 nM Cy5-p53 peptide
pIC50: −log10 of the molar value.
Outcome label depends on pIC50 relative to 5: at/above gives Met, below gives Not met.

COMPOUND | ASSIGNED_CATEGORY
Cc1cc(Cl)ccc1C1c2c(nn(CCN(C)C)c2C(C)C)NC(=O)N1c1cccc(Cl)c1F (stereo not drawn) | Not met
COc1ccccc1-n1nc2c(c1C(C)C)[C@H](c1ccc(Cl)cc1C)N(c1cccc(Cl)c1F)C(=O)N2 | Met
COc1ccccc1-n1nc2c(c1C(C)C)C(c1ccc(Cl)cc1C)N(c1cc(Cl)ccc1OCCN(C)C)C(=O)N2 (stereo not drawn) | Met
CC(C)=CCn1nc2c(c1C(C)C)C(c1ccc(Cl)cc1C)N(c1cccc(Cl)c1F)C(=O)N2 (stereo not drawn) | Not met
COc1ccccc1-n1nc2c(c1C(C)C)C(c1ccc(Cl)cc1)N(c1ccc(=O)n(C)c1)C(=O)N2 (stereo not drawn) | Met
CCn1cc(N2C(=O)Nc3nn(-c4ccccc4OC)c(C(C)C)c3C2c2ccc(Cl)cc2C)cc(Cl)c1=O (stereo not drawn) | Met
Cc1cc(Cl)ccc1[C@@H]1c2c(nn(Cc3ccccc3)c2C(C)C)NC(=O)N1c1cccc(Cl)c1F | Not met
COc1ccccc1-n1nc2c(c1C(C)C)C(c1ccc(Cl)cc1)N(c1cc(Cl)c(=O)n(CCO)c1)C(=O)N2 (stereo not drawn) | Met
COc1ccccc1-n1nc2c(c1C(C)C)C(c1ccc(Cl)cc1C)N(c1cccc(Cl)c1F)C(=O)N2 (stereo not drawn) | Met
Cc1cc(Cl)ccc1[C@H]1c2c(nn(Cc3ccccc3)c2C(C)C)NC(=O)N1c1cccc(Cl)c1F | Not met
COCCn1cc(N2C(=O)Nc3nn(-c4ccccc4OC)c(C(C)C)c3C2c2ccc(Cl)cc2C)cc(Cl)c1=O (stereo not drawn) | Met
COc1ccccc1-n1nc2c(c1C(C)C)[C@@H](c1ccc(Cl)cc1C)N(c1cccc(Cl)c1F)C(=O)N2 | Not met
COc1ccccc1-n1nc2c(c1C(C)C)C(c1ccc(Cl)cc1)N(c1cc(Cl)c(=O)n(C)c1)C(=O)N2 (stereo not drawn) | Met
COc1ccccc1-n1nc2c(c1C(C)C)C(c1ccc(Cl)cc1C)N(c1cc(Cl)ccc1C)C(=O)N2 (stereo not drawn) | Met
COc1ccccc1-n1nc2c(c1C(C)C)C(c1ccc(Cl)cc1C)N(c1cc(Cl)c(=O)n(C)c1)C(=O)N2 (stereo not drawn) | Met
CCn1cc(N2C(=O)Nc3nn(-c4ccccc4OC)c(C(C)C)c3C2c2ccc(Cl)cc2)cc(Cl)c1=O (stereo not drawn) | Met
COc1ccccc1-n1nc2c(c1C(C)C)C(c1ccc(Cl)cc1)N(c1cc(Cl)c(=O)n(CCN(C)C)c1)C(=O)N2 (stereo not drawn) | Met
Cc1cc(Cl)ccc1C1c2c(nn(Cc3ccccc3)c2C(C)C)NC(=O)N1c1cccc(Cl)c1F (stereo not drawn) | Not met

====

IC50 reference
target: p53-MDM2 interaction (human MDM2 protein, amino acids 2-188) (Homo sapiens, UniProt Q00987); construct: human MDM2 protein (amino acids 2-188); made in house; assay: p53-MDM2 Assay 1: TR-FRET inhibition of p53-MDM2 interaction; format: binding; conditions: 1.25 nM MDM2-biotinylated, 10 nM Cy5-p53 peptide
Sequence (Q00987 2-188): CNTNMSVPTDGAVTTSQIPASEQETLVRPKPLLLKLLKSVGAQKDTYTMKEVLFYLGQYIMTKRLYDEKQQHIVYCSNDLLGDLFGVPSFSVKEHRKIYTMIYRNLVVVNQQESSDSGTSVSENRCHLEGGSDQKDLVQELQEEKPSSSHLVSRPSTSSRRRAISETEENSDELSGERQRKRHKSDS
MEASURED_METRIC: IC50 (nM)

COMPOUND | MEASURED_METRIC | OBSERVED_VALUE
COc1ccccc1-n1nc2c(c1C(C)C)C(c1ccc(Cl)cc1C)N(c1cc(Cl)ccc1OCCN(C)C)C(=O)N2 (stereo not shown) [Example 12] | IC50 | 2.5
CC(C)=CCn1nc2c(c1C(C)C)C(c1ccc(Cl)cc1C)N(c1cccc(Cl)c1F)C(=O)N2 (stereo not shown) [Example 4] | IC50 | 3.5
COc1ccccc1-n1nc2c(c1C(C)C)[C@@H](c1ccc(Cl)cc1C)N(c1cccc(Cl)c1F)C(=O)N2 [Example 7] | IC50 | 62.2
Cc1cc(Cl)ccc1[C@H]1c2c(nn(Cc3ccccc3)c2C(C)C)NC(=O)N1c1cccc(Cl)c1F [Example 2] | IC50 | 1.8

====

biological target: p53-MDM2 interaction (human MDM2 protein, amino acids 2-188) (Homo sapiens, UniProt Q00987); construct: human MDM2 protein (amino acids 2-188); made in house; assay: p53-MDM2 Assay 1: TR-FRET inhibition of p53-MDM2 interaction; type: binding; conditions: 1.25 nM MDM2-biotinylated, 10 nM Cy5-p53 peptide
MEASURED_METRIC: IC50 (nM)

COMPOUND | VALUE_UNIT | OBSERVED_VALUE
Cc1cc(Cl)ccc1C1c2c(nn(CCN(C)C)c2C(C)C)NC(=O)N1c1cccc(Cl)c1F (stereo not shown) | nM | 16.7
COc1ccccc1-n1nc2c(c1C(C)C)C(c1ccc(Cl)cc1)N(c1cc(Cl)ccc1OCCN(C)C)C(=O)N2 (stereo not shown) | nM | 6.6
Cc1cc(Cl)ccc1C1c2c(nn(Cc3ccccc3)c2C(C)C)NC(=O)N1c1cc(Cl)ccc1C (stereo not shown) | nM | 3.5
COc1ccccc1-n1nc2c(c1C(C)C)C(c1ccc(Cl)cc1)N(c1cc(Cl)c(=O)n(C)c1)C(=O)N2 (stereo not shown) | nM | 1.6

====

MEASURED_METRIC: melting point

COMPOUND | MEASURED_METRIC | OBSERVED_VALUE
COc1ccccc1-n1nc2c(c1C(C)C)C(c1ccc(Cl)cc1C)N(c1cccc(Cl)c1F)C(=O)N2 (stereo not shown) [Example 5] | melting point | 140 to 143 °C
Cc1cc(Cl)ccc1C1c2c(nn(Cc3ccccc3)c2C(C)C)NC(=O)N1c1cc(Cl)ccc1C (stereo not shown) [Example 11] | melting point | 105 to 107 °C
Cc1cc(Cl)ccc1C1c2c(nn(Cc3ccccn3)c2C(C)C)NC(=O)N1c1cccc(Cl)c1F (stereo not shown) [Example 8] | melting point | 150 to 153 °C
CC(C)=CCn1nc2c(c1C(C)C)C(c1ccc(Cl)cc1C)N(c1cccc(Cl)c1F)C(=O)N2 (stereo not shown) [Example 4] | melting point | 81 to 83 °C

====

biological target: p53-MDM2 interaction (human MDM2 protein, amino acids 2-188) (Homo sapiens, UniProt Q00987); construct: human MDM2 protein (amino acids 2-188); made in house; experiment: p53-MDM2 Assay 2: slightly modified TR-FRET assay; assay type: binding; conditions: 0.1 nM MDM2, 0.1 nM Europium labeled streptavidin, Tecan genios Pro reader
pIC50: −log10 of the molar value.
pIC50 reference

COMPOUND | pIC50
COc1ncc(-n2nc3c(c2C(C)C)C(c2ccc(Cl)cc2C)N(c2cc(Cl)cn(C)c2=O)C(=O)N3)c(OC)n1 (stereo not shown) [Example 32] | 9.68
CCn1cc(N2C(=O)Nc3nn(-c4ccccc4OC)c(C(C)C)c3C2c2ccc(Cl)cc2)cc(Cl)c1=O (stereo not shown) [Example 14] | 9.48
COc1ccc(CNC(C)=O)cc1-n1nc2c(c1C(C)C)C(c1ccc(Cl)cc1C)N(c1cc(Cl)ccc1C)C(=O)N2 (stereo not shown) [Example 26] | 9.89
COCCn1cc(N2C(=O)Nc3nn(-c4ccccc4OC)c(C(C)C)c3C2c2ccc(Cl)cc2C)cc(Cl)c1=O (stereo not shown) [Example 19] | 9.77
COc1ccc(C(N)=O)cc1-n1nc2c(c1C(C)C)C(c1ccc(Cl)cc1C)N(c1cc(Cl)ccc1C)C(=O)N2 (stereo not shown) [Example 28] | 9.62
COc1ncc(-n2nc3c(c2C(C)C)C(c2ccc(Cl)cc2C)N(c2cc(Cl)c(=O)n(C)c2)C(=O)N3)c(OC)n1 (stereo not shown) [Example 31] | 9.54
CCn1cc(N2C(=O)Nc3nn(-c4ccccc4OC)c(C(C)C)c3C2c2ccc(Cl)cc2C)cc(Cl)c1=O (stereo not shown) [Example 21] | 9.72
COc1ccccc1-n1nc2c(c1C(C)C)[C@H](c1ccc(Cl)cc1C)N(c1cccc(Cl)c1F)C(=O)N2 [Example 6] | 9.38
COc1ccccc1-n1nc2c(c1C(C)C)C(c1ccc(Cl)cc1)N(c1cc(Cl)c(=O)n(CCN(C)C)c1)C(=O)N2 (stereo not shown) [Example 22] | 8.84
COc1ccccc1-n1nc2c(c1C(C)C)C(c1ccc(Cl)cc1C)N(c1cc(Cl)ccc1C)C(=O)N2 (stereo not shown) [Example 10] | 9.68
COc1ccccc1-n1nc2c(c1C(C)C)C(c1ccc(Cl)cc1C)N(c1cc(Cl)c(=O)n(C)c1)C(=O)N2 (stereo not shown) [Example 15] | 9.74
COc1ccc(C#N)cc1-n1nc2c(c1C(C)C)C(c1ccc(Cl)cc1C)N(c1cc(Cl)c(=O)n(C)c1)C(=O)N2 (stereo not shown) [Example 24] | 9.85
COc1ccccc1-n1nc2c(c1C(C)C)C(c1ccc(Cl)cc1)N(c1cc(Cl)c(=O)n(C)c1)C(=O)N2 (stereo not shown) [Example 13] | 9.60
COc1ccccc1-n1nc2c(c1C(C)C)C(c1ccc(Cl)cc1)N(c1cc(Cl)c(=O)n(CCO)c1)C(=O)N2 (stereo not shown) [Example 18] | 9.25
COc1ccc(CN)cc1-n1nc2c(c1C(C)C)C(c1ccc(Cl)cc1C)N(c1cc(Cl)ccc1C)C(=O)N2 (stereo not shown) [Example 25] | 9.92
COc1ccc(CNC(C)=O)cc1-n1nc2c(c1C(C)C)C(c1ccc(Cl)cc1C)N(c1cc(Cl)c(=O)n(C)c1)C(=O)N2 (stereo not shown) [Example 30] | 9.68
COc1ccc(CNC=O)cc1-n1nc2c(c1C(C)C)C(c1ccc(Cl)cc1C)N(c1cc(Cl)ccc1C)C(=O)N2 (stereo not shown) [Example 27] | 9.96
COc1ccc(C#N)cc1-n1nc2c(c1C(C)C)C(c1ccc(Cl)cc1C)N(c1cc(Cl)ccc1C)C(=O)N2 (stereo not shown) [Example 23] | 9.82
COc1ccc(CN)cc1-n1nc2c(c1C(C)C)C(c1ccc(Cl)cc1C)N(c1cc(Cl)c(=O)n(C)c1)C(=O)N2 (stereo not shown) [Example 29] | 9.74

Provenance of the data: patent US9556180B2
